Listing: pIC50 of selected molecules
EXPERIMENT DESCRIPTION: Inhibitory activity on the proliferation of Human colon carcinoma […] cancer cells using MTT or sulforhodamine B assay
Type: functional, cell-based
MEASUREMENT CONDITIONS: Cancer cell lines
pIC50: −log10 of the molar value.

- SMILES: "O=C1Nc2ccccc2/C1=C1/Nc2ccccc2C1=O"
  pIC50: "< 4.00"
- SMILES: "O=Nc1c(-c2c(O)[nH]c3ccccc23)[nH]c2ccccc12"
  pIC50: "< 4.00"
- SMILES: "O=Nc1c(-c2c(O)[nH]c3ccc([N+](=O)[O-])cc23)[nH]c2ccccc12"
  pIC50: 4.59
- SMILES: "O=C1C(c2c(O)[nH]c3ccc(S(=O)(=O)O)cc23)=Nc2ccccc21"
  pIC50: "< 4.00"

###

System: A549
EXPERIMENT DESCRIPTION: Inhibitory activity on the proliferation of Human lung carcinoma A549 cancer cells using MTT or sulforhodamine B assay
Type: functional, cell-based
Parameter IC50: see the listing below.

- COMPOUND: "O=C1C(c2c(O)[nH]c3ccc(S(=O)(=O)O)cc23)=Nc2ccccc21"
  EXPERIMENTAL TARGET: "A549"
  UNIT TAG: "µM"
  VALUE COMPARATOR: ">"
  IC50: 100
- COMPOUND: "O=Nc1c(-c2c(O)[nH]c3ccc([N+](=O)[O-])cc23)[nH]c2ccccc12"
  EXPERIMENTAL TARGET: "A549"
  UNIT TAG: "µM"
  VALUE COMPARATOR: "="
  IC50: 5.4
- COMPOUND: "O=Nc1c(-c2c(O)[nH]c3ccccc23)[nH]c2ccccc12 [INDIRUBIN-3-MONOXIME]"
  EXPERIMENTAL TARGET: "A549"
  UNIT TAG: "µM"
  VALUE COMPARATOR: "="
  IC50: 62
- COMPOUND: "O=C1Nc2ccccc2/C1=C1/Nc2ccccc2C1=O [INDIRUBIN]"
  EXPERIMENTAL TARGET: "A549"
  UNIT TAG: "µM"
  VALUE COMPARATOR: "="
  IC50: 31

###

System: HT-1080
EXPERIMENT DESCRIPTION: Inhibitory activity on the proliferation of Human fibrosarcoma HT1080 cancer cells using MTT or sulforhodamine B assay
Assay type: functional, cell-based

- SMILES: "O=C1C(c2c(O)[nH]c3ccc(S(=O)(=O)O)cc23)=Nc2ccccc21"
  IC50: "> 100 µM"
- SMILES: "O=Nc1c(-c2c(O)[nH]c3ccccc23)[nH]c2ccccc12"
  IC50: "4.8 µM"
- SMILES: "O=C1Nc2ccccc2/C1=C1/Nc2ccccc2C1=O"
  IC50: "42.2 µM"
- SMILES: "O=Nc1c(-c2c(O)[nH]c3ccc([N+](=O)[O-])cc23)[nH]c2ccccc12"
  IC50: "5.9 µM"
